tested target: Albumin (Bos taurus) (UniProt P02769)
Sequence (P02769 whole entry, looked up): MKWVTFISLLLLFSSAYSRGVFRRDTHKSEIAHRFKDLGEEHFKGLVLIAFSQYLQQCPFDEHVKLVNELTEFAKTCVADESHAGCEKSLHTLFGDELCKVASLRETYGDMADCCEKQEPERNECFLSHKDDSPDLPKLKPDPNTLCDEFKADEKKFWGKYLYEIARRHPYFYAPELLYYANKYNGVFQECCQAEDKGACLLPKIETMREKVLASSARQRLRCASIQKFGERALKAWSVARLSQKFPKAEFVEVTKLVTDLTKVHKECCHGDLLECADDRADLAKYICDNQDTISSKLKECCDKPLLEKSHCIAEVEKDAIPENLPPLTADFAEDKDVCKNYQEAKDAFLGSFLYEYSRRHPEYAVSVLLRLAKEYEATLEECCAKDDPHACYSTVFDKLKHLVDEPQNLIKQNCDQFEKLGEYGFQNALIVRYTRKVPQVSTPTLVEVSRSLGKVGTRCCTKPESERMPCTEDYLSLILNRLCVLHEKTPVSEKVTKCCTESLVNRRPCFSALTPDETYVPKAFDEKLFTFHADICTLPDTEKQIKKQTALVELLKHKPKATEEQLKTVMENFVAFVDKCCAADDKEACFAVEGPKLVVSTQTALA
method: bovine serum albumin binders on microarray, profiling panel, artefact control for SMM control protein annotation, biochemical, small-molecule microarray, Alexa647 label, 635/667 nm fluorescence (AID 1118);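 also: score merges 667 nm emission intensity and signal-to-noise per printed compound spot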
run conditions: BSA-A647 binding, fluorescence 635 nm, higher = more signal
Measured composite z-score of individual entries
Just the number, please.

Use these answered entries as a reference point.
compound smiles | measured quantity | measured number
COc1ccc(C(=O)Nc2cccc(CN3C(=O)[C@]4(O[C@H](CC(=O)N5CCC[C@H]5CO)[C@@H]([Si](C)(C)c5ccc(OC)cc5)[C@@H]4C)c4ccccc43)c2)cc1 | composite z-score | 0.114
COCCOC(=O)N1C(=O)[C@@]2(c3cc(C#CCC(C(=O)OC)C(=O)OC)ccc31)[C@H](c1ccc(O)cc1)N1[C@H](c3ccccc3)[C@H](c3ccccc3)OC(=O)[C@H]1[C@@H]2C(N)=O | composite z-score | 0.47

# input molecule: COCCOC(=O)N1C(=O)[C@@]2(c3cc(C#CC4=CCCCC4)ccc31)[C@H](C(=O)N1CCc3cc(OC)c(OC)cc3C1)[C@H]1C(=O)O[C@H](c3ccccc3)[C@H](c3ccccc3)N1[C@@H]2c1ccccc1OCCO ; wanted: its composite z-score
-0.092

====

method: P. aeruginosa biofilm formation inhibitors, primary screen, PAO1 strain, BacTiter-Glo luminescence, LB-PBS (AID 1144)
run conditions: 12 h, higher = more signal
Field: class. Source value: z-score. Ranges: class 0 = under -0.3, class 1 = from -0.3 up to 0.03, class 2 = 0.03 and over

Reference set, count: 5
compound | label class
COc1ccc(CCNC(=O)[C@@H]2c3ccccc3C(=O)N(Cc3ccc(OC(F)(F)F)cc3)[C@H]2c2ccc(CO)cc2)cc1 | class 0
CC(C)(C)N1CC=CC23O[C@@H]4/C=C\CCCOC(=O)C4[C@H]2C(=O)N(CCO)[C@@H]3C1=O (stereo partly specified) | class 0
COc1ccc(CCNC(=O)[C@@]2(Sc3ccc(C)cc3)CC(=O)N(Cc3ccccc3Cl)[C@@H]2c2ccc(CO)cc2I)cc1 | class 2
COC(=O)[C@@]1(Cc2ccccc2)[C@H]2c3cc(C(=O)N4CCCC4)n(C)c3C[C@H]2CN1C(=O)c1ccccc1 | class 2
[N-]=[N+]=NCc1ccccc1[C@H]1OC(c2ccc(OCCCO)cc2)=N[C@@]1(CCS(=O)(=O)c1ccccc1)C(=O)N1CCOCC1 | class 2

Now look at this one.
Textbook exercise: identify the category of the compound given here, CC(C)OC(=O)CC(=O)CC(O)c1ccc(C#N)cc1 (stereo unspecified) , according to its measured value.
class 0

====

Measured composite z-score of individual entries
tested target: Torsin-1A-interacting protein 1 (Homo sapiens)
method: LAP1 binders from COS7 cell lysate, primary screen, small-molecule microarray, 635/667 nm fluorescence (AID 1116)
run conditions: COS7-hLAP1 lysate binding, 635 nm fluorescence, higher = more signal
Just the number, please.

Use these answered entries as a reference point.
molecule | measured quantity | measured number
COc1ccc(C(=O)Nc2cccc(CN3C(=O)[C@]4(O[C@H](CC(=O)N5CCC[C@H]5CO)[C@@H]([Si](C)(C)c5ccc(OC)cc5)[C@@H]4C)c4ccccc43)c2)cc1 | composite z-score | 1.06
O=C1O[C@@H](c2ccccc2)[C@@H](c2ccccc2)N2[C@@H](c3ccc(O)cc3)[C@]3(C(=O)Nc4ccc(C#CC5=CCCCC5)cc43)[C@@H](C(=O)O)[C@H]12 | composite z-score | 1.55

Recorded composite z-score for C=CCOC(=O)[C@H]1[C@@H]2C(=O)O[C@@H](c3ccccc3)[C@@H](c3ccccc3)N2[C@@H](c2ccc(OCCOC(=O)[C@@H]3C[C@@H]4C(=O)NCC(=O)N4[C@@H]3c3ccc(O)cc3)cc2)[C@]12C(=O)Nc1ccccc12 with Torsin-1A-interacting protein 1 (Homo sapiens), please?
0.609

Recorded composite z-score for COc1ccc([Si](C)(C)[C@@H]2[C@@H](CC(=O)N3CCC[C@H]3CO)O[C@]3(C(=O)N(C)c4c(Br)cc(C)cc43)[C@H]2C)cc1 with Torsin-1A-interacting protein 1 (Homo sapiens), please?
0.948

Recorded composite z-score for COCCCNC(=O)[C@@]1(c2ccc([N+](=O)[O-])cc2)CC(=O)N(CC23CC4CC(CC(C4)C2)C3)[C@@H]1c1ccc(CO)cc1 with Torsin-1A-interacting protein 1 (Homo sapiens), please?
0.422

Recorded composite z-score for O=C1OCC=C[C@H]2OC34C=CCN(c5ccc(Cl)cc5)C(=O)[C@H]3N(CCCCCCO)C(=O)[C@@H]4[C@@H]12 (some centres not stated) with Torsin-1A-interacting protein 1 (Homo sapiens), please?
-0.143

Recorded composite z-score for COC(=O)[C@@]1(Cc2ccccc2)N=C(c2ccc(OCCCO)cc2)O[C@H]1c1ccccc1N=[N+]=[N-] with Torsin-1A-interacting protein 1 (Homo sapiens), please?
2.83
